Provide the recorded IC50 for the entries that follow.
assay_target: CDK4-CYCLIND1 (Homo sapiens)
assay_remarks: Microfluidic LabChip kinase inhibition assay, CDK4-CyclinD1
experimental_context: CDK4 CyclinD1 IC50 (μM), Table 3a; 200 μM ATP; second value in parentheses on the next line
Numbers only, in µM.

Worked cases, answers included:
{"columns": ["compound", "IC50, µM"],
 "data": [
  ["CN(C)[C@H]1CCN(C(=O)c2ccc(Nc3ncc4c(n3)N(C3CCCC3)C3(CCNC3=O)C4)cc2)C1 (stereo partly drawn)", 0.0453],
  ["CC1CN(c2ccc(Nc3ncc4c(n3)N(C3CCCC3)C3(CCNC3=O)C4)cc2)CC(C)N1 (stereo not drawn)", 0.341]
]}

Which measured IC50 belongs to CN1CCN(c2ccc(Nc3ncc4c(n3)N(C3CCCC3)C3(CCNC3=O)C4)cc2F)CC1 (single isomer, unassigned) [Compound C205] , tested on CDK4-CYCLIND1 (Homo sapiens)?
0.0413

----------
assay_target: CDK4-CYCLIND1 (Homo sapiens, UniProt P11802)
Sequence (P11802 whole entry): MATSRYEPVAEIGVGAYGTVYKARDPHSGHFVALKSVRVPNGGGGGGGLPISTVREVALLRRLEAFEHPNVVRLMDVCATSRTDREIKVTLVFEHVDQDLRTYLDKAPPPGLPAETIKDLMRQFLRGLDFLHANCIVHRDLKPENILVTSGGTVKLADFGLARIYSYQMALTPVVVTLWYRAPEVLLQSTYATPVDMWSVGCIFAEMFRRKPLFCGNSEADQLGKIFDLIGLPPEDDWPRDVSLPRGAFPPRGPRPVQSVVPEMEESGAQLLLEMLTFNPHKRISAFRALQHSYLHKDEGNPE
Sequence (P24385 whole entry partner): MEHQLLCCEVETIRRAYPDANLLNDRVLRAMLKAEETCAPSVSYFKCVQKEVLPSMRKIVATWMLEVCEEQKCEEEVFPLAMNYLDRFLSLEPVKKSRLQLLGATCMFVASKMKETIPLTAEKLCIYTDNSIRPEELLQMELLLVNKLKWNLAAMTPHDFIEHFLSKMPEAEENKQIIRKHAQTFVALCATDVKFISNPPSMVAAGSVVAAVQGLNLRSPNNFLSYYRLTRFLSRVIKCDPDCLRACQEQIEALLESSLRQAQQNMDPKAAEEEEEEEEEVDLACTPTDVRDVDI
assay_remarks: Microfluidic LabChip kinase inhibition assay, CDK4-CyclinD1
experimental_context: CDK4 IC50 (μM), Table 2; 200 μM ATP, 1 nM enzyme
Provide the recorded IC50 for the entries that follow.

Worked cases, answers included:
{"columns": ["compound", "IC50"],
 "data": [
  ["CN(C)C(=O)c1cc2cnc(Nc3ccc(N4CCN(C#N)CC4)cn3)nc2n1C1CCCC1", "> 30 µM"],
  ["CN1CCC2(Cc3cnc(Nc4cc(C(F)(F)F)c(N5CCNCC5)cn4)nc3N2C2CCCC2)C1=O (stereo not drawn)", "> 30 µM"]
]}

Proceed to the following item.
Request the reported IC50 associated with CN1CCC2(Cc3cnc(Nc4ccc(N5CCNCC5)cn4)nc3N2C2CCCC2)C1=O (stereo not drawn)
> 30 µM

----------
assay_target: CDK7 CyclinH (Homo sapiens)
Sequence (P50613 whole entry): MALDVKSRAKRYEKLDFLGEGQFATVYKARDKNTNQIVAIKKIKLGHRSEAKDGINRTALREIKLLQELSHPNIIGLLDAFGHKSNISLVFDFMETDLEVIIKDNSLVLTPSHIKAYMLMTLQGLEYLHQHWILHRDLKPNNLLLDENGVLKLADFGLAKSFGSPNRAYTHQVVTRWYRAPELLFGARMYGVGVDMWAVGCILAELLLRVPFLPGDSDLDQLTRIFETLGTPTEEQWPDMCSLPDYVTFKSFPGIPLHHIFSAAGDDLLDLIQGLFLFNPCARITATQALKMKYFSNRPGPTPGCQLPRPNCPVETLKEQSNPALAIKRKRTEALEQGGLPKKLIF
Sequence (P51946 whole entry partner): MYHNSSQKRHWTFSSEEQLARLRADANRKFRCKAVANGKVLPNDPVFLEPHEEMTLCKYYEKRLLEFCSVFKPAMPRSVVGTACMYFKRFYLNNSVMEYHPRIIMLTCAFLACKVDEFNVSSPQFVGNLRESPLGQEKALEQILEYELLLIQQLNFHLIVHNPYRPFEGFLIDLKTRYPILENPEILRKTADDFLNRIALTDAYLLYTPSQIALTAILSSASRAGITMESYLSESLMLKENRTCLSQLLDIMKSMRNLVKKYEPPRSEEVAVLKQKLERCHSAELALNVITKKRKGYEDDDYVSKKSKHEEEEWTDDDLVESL
Sequence (P51948 whole entry partner): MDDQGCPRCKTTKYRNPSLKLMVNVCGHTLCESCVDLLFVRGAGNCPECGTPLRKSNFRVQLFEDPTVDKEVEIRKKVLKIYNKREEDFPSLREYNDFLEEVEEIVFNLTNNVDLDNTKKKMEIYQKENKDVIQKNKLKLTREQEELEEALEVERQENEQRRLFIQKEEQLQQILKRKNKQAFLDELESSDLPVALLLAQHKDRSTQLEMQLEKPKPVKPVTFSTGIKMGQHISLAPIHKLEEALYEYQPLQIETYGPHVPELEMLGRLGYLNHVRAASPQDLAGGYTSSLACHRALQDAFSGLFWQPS
assay_remarks: Additional inhibition assay, CDK7 CyclinH
Format: biochemical
experimental_context: Table 3b
Provide the recorded IC50 for the entries that follow.

Worked cases, answers included:
{"columns": ["compound", "assay_target", "IC50"],
 "data": [
  ["CC(C)N1CC2(CN(c3ccc(Nc4ncc5c(n4)N(C4CCCC4)C4(CC(=O)NC4=O)C5)cc3)C2)C1 (stereo not drawn)", "CDK7 CyclinH (Homo sapiens)", "> 10 µM"],
  ["CN(C)CCOc1ccc(Nc2ncc3c(n2)N(C2CCCC2)C2(CCNC2=O)C3)cc1 (stereo not drawn)", "CDK7 CyclinH (Homo sapiens)", "> 10 µM"]
]}

Which measured IC50 belongs to CC1CN(c2ccc(Nc3ncc4c(n3)N(C3CCCC3)C3(CC(=O)NC3=O)C4)cc2)CC(C)N1 (stereo not drawn) , tested on CDK7 CyclinH (Homo sapiens)?
> 10 µM
